- target_entity: EPHB2 (UniProt P29323)
- Sequence (P29323 whole entry, looked up): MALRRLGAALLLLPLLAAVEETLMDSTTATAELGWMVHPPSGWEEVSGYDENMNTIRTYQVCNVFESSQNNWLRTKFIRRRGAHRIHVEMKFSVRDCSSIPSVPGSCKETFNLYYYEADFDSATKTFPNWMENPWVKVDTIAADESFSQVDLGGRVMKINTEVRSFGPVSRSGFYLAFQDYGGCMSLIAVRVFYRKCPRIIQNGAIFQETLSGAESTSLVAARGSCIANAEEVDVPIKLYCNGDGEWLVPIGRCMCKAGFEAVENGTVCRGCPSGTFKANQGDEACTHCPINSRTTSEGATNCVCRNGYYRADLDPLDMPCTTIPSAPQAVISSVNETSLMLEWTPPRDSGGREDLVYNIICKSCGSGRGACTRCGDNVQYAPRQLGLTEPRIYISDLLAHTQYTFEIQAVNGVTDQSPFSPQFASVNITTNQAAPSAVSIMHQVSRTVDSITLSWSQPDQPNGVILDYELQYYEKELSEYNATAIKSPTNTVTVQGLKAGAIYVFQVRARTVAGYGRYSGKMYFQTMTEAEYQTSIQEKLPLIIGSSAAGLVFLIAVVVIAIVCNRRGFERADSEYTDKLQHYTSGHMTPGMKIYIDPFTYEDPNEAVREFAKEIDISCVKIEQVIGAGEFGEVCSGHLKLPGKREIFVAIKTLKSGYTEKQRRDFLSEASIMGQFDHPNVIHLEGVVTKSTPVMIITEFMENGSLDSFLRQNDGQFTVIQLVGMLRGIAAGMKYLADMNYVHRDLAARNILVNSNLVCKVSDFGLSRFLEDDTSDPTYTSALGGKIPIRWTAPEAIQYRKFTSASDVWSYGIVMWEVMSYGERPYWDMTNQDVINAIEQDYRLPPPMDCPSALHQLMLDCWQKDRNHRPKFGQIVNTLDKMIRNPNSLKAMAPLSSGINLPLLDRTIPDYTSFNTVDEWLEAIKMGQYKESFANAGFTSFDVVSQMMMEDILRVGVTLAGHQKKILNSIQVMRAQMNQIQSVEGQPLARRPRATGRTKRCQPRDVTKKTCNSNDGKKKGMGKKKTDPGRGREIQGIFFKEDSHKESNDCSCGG
- test_details: phosphorylation enrichment, bacterial display (enrichment ratio); higher = better substrate or ligand; peptides without Tyr show the background;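 further: 11-residue human phosphosite peptides and single-mutation variants displayed on the E. coli surface, counted by deep sequencing, each peptide's frequency after selection divided by its frequency in the unselected input library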;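 further: frequency after pTyr selection over input frequency; kinase dosed for 20-30% of maximal phosphorylation in three min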
parameter: phosphorylation enrichment
Numbers only.

Would you please look over these solved cases?
- sequence_record: "AGIVVYNIIGW [MYH7_Y588_D587V]"
  phosphorylation enrichment: 0.633
- sequence_record: "NPQKPYFIRLY [WAS_Y83_S82P]"
  phosphorylation enrichment: 0.599
- sequence_record: "EFNLMYDGAKE [IRF6_Y97_T100A]"
  phosphorylation enrichment: 0.576

List the reported phosphorylation enrichment of each sequence below.
1. YRVAGYETQGG [TIA1_Y383]
2. KWTVDYLSQVG [TYW5_Y48]
3. VVAHQYSFAPD [TNS3_Y601]
4. IGEGTYRQVFK [CDK13_Y716_G717R_YF]

1: 0.338; 2: 0.494; 3: 0.353; 4: 0.582

List the reported phosphorylation enrichment of each sequence below.
1. AEFGLYGAMVW [VSX2_Y222_R227W_YF]
2. LPIQTYSALNF [DES_Y423]
3. FDDDDYDMDFV [BLM_Y296_T298M]
4. QMVGMYASSFM [AVPR2_Y124_YF]
5. FSPCDYQPCLA [TNS1_Y798_Y796C_YF]
6. RIDPDYMGRVR [IGSF9_Y81_V82M]
7. EEVKAYLDFRE [CHAC2_Y78]

[1.15, 11.7, 0.612, 0.914, 6.05, 0.367, 0.765]

###

- target_entity: Hck (UniProt P08631)
- Sequence (P08631 whole entry, looked up): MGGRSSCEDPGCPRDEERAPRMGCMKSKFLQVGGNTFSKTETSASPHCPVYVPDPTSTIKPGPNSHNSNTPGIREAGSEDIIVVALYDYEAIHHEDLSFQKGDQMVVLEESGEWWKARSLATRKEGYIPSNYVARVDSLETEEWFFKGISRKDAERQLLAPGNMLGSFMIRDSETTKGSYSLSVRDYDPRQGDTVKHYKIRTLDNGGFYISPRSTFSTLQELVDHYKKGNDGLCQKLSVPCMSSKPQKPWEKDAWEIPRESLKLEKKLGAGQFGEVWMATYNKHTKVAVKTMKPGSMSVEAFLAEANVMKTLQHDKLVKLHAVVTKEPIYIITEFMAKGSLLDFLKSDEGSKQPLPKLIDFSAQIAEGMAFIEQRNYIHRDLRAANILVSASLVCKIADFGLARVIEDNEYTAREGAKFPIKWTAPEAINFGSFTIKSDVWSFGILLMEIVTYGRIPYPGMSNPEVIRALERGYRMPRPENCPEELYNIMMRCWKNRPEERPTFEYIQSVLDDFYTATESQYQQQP
- test_details: phosphorylation enrichment, bacterial display (enrichment ratio); higher = better substrate or ligand; peptides without Tyr show the background
Where phosphorylation enrichment equals or exceeds 0.6, the correct label is 1.0; where it does not, the label is 0.0.

- sequence_record: "EDDIIYTQDFM [STK11_Y362_T367M]"
  label_value: 1.0
- sequence_record: "FADIAYSFRHG [PAH_Y166_N167S_YF]"
  label_value: 0.0
- sequence_record: "IHHIDYFKETT [FGFR1_Y653_K656E_YF]"
  label_value: 0.0
- sequence_record: "IMAFFYMCDRA [CASD1_Y382_YF]"
  label_value: 0.0
- sequence_record: "RFGKVYKAHLF [ROR2_Y488_G490A]"
  label_value: 1.0
- sequence_record: "DEFLEYRRIVG [FAM221A_Y20_YF]"
  label_value: 0.0
- sequence_record: "WAAQRYGRELR [BAD_Y110]"
  label_value: 0.0
- sequence_record: "TFEYRYLEDQD [CNOT3_Y746_R750Q]"
  label_value: 1.0
- sequence_record: "PEADKYRLTYA [FGG_Y300]"
  label_value: 1.0
- sequence_record: "EALDFCGEVRT [PTEN_Y155_Y155C]"
  label_value: 1.0

Say whether `TACNPYKPPGP` shows phosphorylation enrichment of 0.6 or more.
0.0

Say whether PESILYRKFTT [NTRK1_Y701] shows phosphorylation enrichment of 0.6 or more.
0.0

Say whether QEKKGYFEDRR [GLUL_Y336] shows phosphorylation enrichment of 0.6 or more.
1.0

Say whether VTNHIYTWVDP [DFNB31_Y234] shows phosphorylation enrichment of 0.6 or more.
1.0
